Assay: Half life in rat at 1 mg/kg, iv
Type: ADME, organism-based
Parameters: dose 1 mg/kg, route intravenous
Conditions: in vivo
readout.name: half-life (h)

Examples with answers:
Cn1cc(-c2ccc3c(c2)[nH]c2c(C(N)=O)cnc(N[C@H](C4CC4)C(F)(F)F)c23)cn1	4.1
Cn1cc(-c2ccc3c(c2)[nH]c2c(C(N)=O)cnc(NC(C4CC4)C4CC4)c23)cn1	3.2

A = NC(=O)c1cnc(N[C@H](C2CC2)C(F)(F)F)c2c1[nH]c1cc(-c3cnc(N)nc3)ccc12
B = C[C@H](Nc1ncc(C(N)=O)c2[nH]c3cc(-c4cnn(C)c4)ccc3c12)C1CC1
## Task // task: argmin of half-life over [ A , B ] Returns: label corresponding to the selected item.
## Result B
(B: 1 h, A: 4.5 h)

These data points were gathered from ChEMBL document CHEMBL1833803.
